target: human TYK2 (JH2domain-pseudokinase) (Homo sapiens (Human), UniProt P29597); test: TYK2 JH2 Domain Binding Assay (KINOMEscan)
Sequence (P29597 556-888): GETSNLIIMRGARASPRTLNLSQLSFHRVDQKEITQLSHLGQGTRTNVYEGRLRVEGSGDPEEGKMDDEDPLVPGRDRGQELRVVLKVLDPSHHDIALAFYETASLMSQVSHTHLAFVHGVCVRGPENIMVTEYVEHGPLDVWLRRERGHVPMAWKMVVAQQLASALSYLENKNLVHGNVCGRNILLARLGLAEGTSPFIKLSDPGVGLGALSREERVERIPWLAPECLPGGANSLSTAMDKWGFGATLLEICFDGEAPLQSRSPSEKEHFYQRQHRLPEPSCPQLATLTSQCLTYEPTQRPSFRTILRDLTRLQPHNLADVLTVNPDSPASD
pKd: −log10 of the molar value.
readout_kind: pKd

These solved cases illustrate the format of a correct answer.
compound: CNc1cc(Nc2cc(C)cn(-c3ccn(C)n3)c2=O)nc2c(C(=O)N[C@H]3C[C@H]3F)cnn12 [I-250]
pKd: > 9.70
//
compound: CNc1cc(Nc2cccn([C@H]3CC[C@H](OC)CC3)c2=O)nc2c(C(=O)N[C@@H]3CC[C@H]3O)cnn12 [I-635]
pKd: > 9.70
//
compound: CNc1cc(Nc2cc(F)cn([C@H]3CCCOC3)c2=O)nc2c(C(=O)N[C@H]3C[C@H]3F)cnn12 [I-559]
pKd: > 9.70
//
compound: CNc1cc(Nc2cccc(N3CCOC3=O)n2)nc2c(C(=O)N[C@H]3C[C@H]3F)cnn12 [I-236]
pKd: > 9.70
//
compound: CNc1cc(Nc2cccn([C@H]3CCC[C@@H](OC)C3)c2=O)nc2c(C(=O)NCC3(CO)CC3)cnn12 [I-928]
pKd: 9.00 to 9.70
//
compound: CNc1cc(Nc2cc(Cl)cn([C@@H]3CCCN(C)C3)c2=O)nc2c(C(=O)N[C@@H]3C[C@@H]3F)cnn12 [I-853]
pKd: > 9.70
//
compound: CNc1cc(Nc2cccc([C@H]3CCCOC3)n2)nc2c(C(=O)N[C@H]3COC[C@H]3O)cnn12 [I-692]
pKd: > 9.70
//
compound: COc1ncccc1Nc1cc(NC2CC2)n2ncc(C(=O)NC3CC3)c2n1 [I-336]
pKd: 9.00 to 9.70
//
compound: CNc1cc(-c2nn(CCN3CCOCC3)c3ncccc23)nc2c(C(=O)N[C@H]3C[C@H]3F)cnn12 [I-456]
pKd: 8.00 to 9.00
//
compound: CNc1cc(Nc2cccc(N3CCOCC3)c2Cl)nc2c(C(N)=O)cnn12 [I-18]
pKd: > 9.70

-- ask Would you mind telling me what pKd value was observed for CNc1cc(Nc2cccn([C@H]3CC[C@H](OC)CC3)c2=O)nc2c(C(=O)NC[C@@H](C)CO)cnn12 [I-830] ?
-- reply > 9.70

-- ask Requested field: pKd. Item: CNc1cc(Nc2cccn([C@@H]3CCCC[C@@H]3OC)c2=O)nc2c(C(=O)N[C@@H]3CC[C@H]3OC)cnn12 [I-1128]
-- reply 8.00 to 9.00

-- ask Please look up its pKd: CNc1cc(Nc2cccn(-c3ccccc3F)c2=O)nc2c(C(=O)N[C@@H]3CC[C@@H]3O)cnn12 [I-1036]
-- reply 9.00 to 9.70
